Documented CDC EC50 across a set of binders
- SUBJECT_OF_TEST: human Claudin 18.2 (hCLDN18.2) (human, UniProt P56856-2 1-261)
- PROTOCOL_NOTES: cell-based or functional assay
Answer in µg/mL, number only, no unit symbol.

ch-40G7 (antibody, V domains shown, also called chimeric antibody of clone 40G7) VH: QVQLQQPGTELVKPGASVKLSCKASGYTFTNYWMHWVKQRPGHGLEWIGMIHPNSYSTNYNEKFRSKATLTVDKSSSTAYMQLSSLTSEDSAVYYCTRIYYGNAMDYWGQGTSVTVSS VL: DIVMTQSPSSLTVTAGERVTMSCKSSQSLFNSGNQKNYLTWYHQKPGQPPKLLIYWAFTRESGVPDRFTGSGSGTDFTLTIRSVQAEDLAVYYCQNDYSYPFTFGSGTKLEIK    0.38
ch-126A11 (antibody, V domains shown, also called chimeric antibody of clone 126A11) VH: QVQLKESGPGLVAPSQSLSITCTVSEFSLTTYGVSWVRQPPGKGLEWLGVIWGDGSTNYHSALISRLSISKDTSKSQVFLKLNSLQTDDTATYYCAKPGLRNAMDYWGQGTSVTVSS VL: DIVMTQSPSSLSVSAGEKVTMSCKSSQSLLNSGNQKNYLAWYQQKPGQPPKLLIYGASTRESGVPDRFTGSGSGTDFTLTISSVQAEDLAVYYCQNDLIYPLTFGAGTKLELK    0.065

Next up:
In: Requested read-out: CDC EC50. Entry: ch-229C9 (antibody, V domains shown, also called chimeric antibody of clone 229C9) VH: DVQLQESGPDLVKPSQSLSLICTVTGYSITSGYSWHWIRQFPGNKLEWMGYIHYSGGTNYNPSLKSRISFTRDTSKNQFFLQLNSVTTEDTATYYCARLERGNSFAYWGQGTLVTVSA VL: DIVMTQSPSSLTVTAGEKVTMSCKSTQSLLNSGNQKNYLTWYQQKPGQPPKLLIYWASTRESGVPDRFTGSGSGTDFTLTISSLQAEDLAVYYCQNDYFYPFTFGSGTKLEIK
Out: 0.165
